# measured_target: PDL1, Q9NZQ7
# Sequence (Q9NZQ7 whole entry): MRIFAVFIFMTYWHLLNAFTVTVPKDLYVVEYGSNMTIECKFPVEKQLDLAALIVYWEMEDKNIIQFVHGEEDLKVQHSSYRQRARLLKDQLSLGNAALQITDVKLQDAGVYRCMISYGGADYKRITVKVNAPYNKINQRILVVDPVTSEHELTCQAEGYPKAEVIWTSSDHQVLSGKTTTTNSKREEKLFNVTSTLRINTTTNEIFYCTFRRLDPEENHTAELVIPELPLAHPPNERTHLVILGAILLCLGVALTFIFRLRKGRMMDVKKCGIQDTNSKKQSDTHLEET
endpoint: binding in a display sort

binder	observed
d8r1_design_ppi_1429_dldesign_0_cycle0_af2pred (protein) SSLESEERLRRMAEGIAERTLRVVERLAKEDLETARRAAENTRGLLAKLGPVAAKIGEETWERAEAILAAIA	not found (inactive)
d8r1_design_ppi_271_dldesign_0_cycle0_af2pred (protein) AAAELAATIAAAAAAAAADGPRGLALLAGAILRAFPSLSAETLAEIIRLAAADPAAAAEAIAALAAAHPEAAPALAAALRAALAELA	not found (inactive)
d8r1_design_ppi_408_dldesign_0_cycle1_af2pred (protein) ASAEAKKKALELIKKAVALTSQGLAKGDKALVKKGLEYAKKAKEEAAKSADAATLLKAVDNVEAMAKTVLDAL	not found (inactive)
